Tested on: SARS-CoV-2
Test: microbe, parasite or virus in culture
Type: cell-based
Conditions: Severe acute respiratory syndrome coronavirus 2; CaCo-2 cells, MOI 0.1, 48 h, 50% reduction in viral titers; read-out: EC50 (µM) (95% CI)
Each entry below lists one item and its recorded EC50 value.
endpoint-name: EC50 (µM)

molecule	endpoint-name	lt-gt-eq	measured-result
CCC(CC)COC(=O)[C@H](C)N[P@](=O)(OC[C@H]1O[C@@](C#N)(c2ccc3c(N)ncnn23)[C@H](O)[C@@H]1O)Oc1ccccc1 [Remdesivir]	EC50	<	0.3
O=C(N[C@@H](Cc1ccc(O)cc1)C(=O)O)c1cc(-c2ccccc2)c(=O)n2c1sc1ccc(OC3CCCCC3)cc12 [Compound 16, reference compound]	EC50	=	0.949
O=C(N[C@@H](Cc1ccccc1)C(=O)O)c1cc(-c2ccccc2)c(=O)n2c1sc1ccc(OC3CCCCC3)cc12 [Compound 17]	EC50	=	0.996
O=C(N[C@@H](Cc1ccc(O)cc1)C(=O)O)c1ccc(=O)n2c1sc1ccc(OC3CCCCC3)cc12 [Compound 18]	EC50	>	25

* * *

Target: SARS-CoV-2 RdRp (Severe acute respiratory syndrome coronavirus 2)
Assay: biochemical
Assay type: biochemical
pIC50: −log10 of the molar value.

compound	pIC50
O=C(N[C@@H](Cc1ccc(O)cc1)C(=O)O)c1cc(-c2ccccc2)c(=O)n2c1sc1ccc(OC3CCCCC3)cc12 [Compound 16, reference compound]	4.56

* * *

Each entry below lists one item and its recorded CC50 at 48 h value.
Experiment: in vitro
Settings: African green monkey

molecule	CC50 at 48 h
O=C(N[C@@H](Cc1ccc(O)cc1)C(=O)O)c1cc(-c2ccccc2)c(=O)n2c1sc1ccc(OC3CCCCC3)cc12 [Compound 16, reference compound]	> 50 µM
O=C(N[C@@H](Cc1ccc(O)cc1)C(=O)O)c1ccc(=O)n2c1sc1ccc(OC3CCCCC3)cc12	> 50 µM
O=C(N[C@@H](Cc1ccccc1)C(=O)O)c1cc(-c2ccccc2)c(=O)n2c1sc1ccc(OC3CCCCC3)cc12	> 50 µM

* * *

Experiment: in vitro
Settings: cat (Felis catus)
Each entry below lists one item and its recorded CC50 at 48 h value.
endpoint-name: CC50 at 48 h

compound	measured-result
O=C(N[C@@H](Cc1ccccc1)C(=O)O)c1cc(-c2ccccc2)c(=O)n2c1sc1ccc(OC3CCCCC3)cc12	> 50 µM
O=C(N[C@@H](Cc1ccc(O)cc1)C(=O)O)c1ccc(=O)n2c1sc1ccc(OC3CCCCC3)cc12	> 50 µM
O=C(N[C@@H](Cc1ccc(O)cc1)C(=O)O)c1cc(-c2ccccc2)c(=O)n2c1sc1ccc(OC3CCCCC3)cc12 [Compound 16, reference compound]	> 50 µM

* * *

Tested on: SARS-CoV-2
Test: microbe, parasite or virus in culture
Format: cell-based
Details: CC50/EC50, Vero cells, SARS-CoV-2

molecule	SI
CCC(CC)COC(=O)[C@H](C)N[P@](=O)(OC[C@H]1O[C@@](C#N)(c2ccc3c(N)ncnn23)[C@H](O)[C@@H]1O)Oc1ccccc1	>55.5
O=C(N[C@@H](Cc1ccccc1)C(=O)O)c1cc(-c2ccccc2)c(=O)n2c1sc1ccc(OC3CCCCC3)cc12	>94.8
O=C(N[C@@H](Cc1ccc(O)cc1)C(=O)O)c1ccc(=O)n2c1sc1ccc(OC3CCCCC3)cc12	>1
O=C(N[C@@H](Cc1ccc(O)cc1)C(=O)O)c1cc(-c2ccccc2)c(=O)n2c1sc1ccc(OC3CCCCC3)cc12 [Compound 16, reference compound]	>76.5

* * *

Target: SARS-CoV-2 RdRp (Severe acute respiratory syndrome coronavirus 2, UniProt P0DTD1)
Test: biochemical
Assay type: biochemical
Conditions: radioactive primer extension assay, n = 3, ± standard error of the mean; read-out: IC50
Each entry below lists one item and its recorded IC50 value.

compound	units-label	IC50
O=C(N[C@@H](Cc1ccccc1)C(=O)O)c1cc(-c2ccccc2)c(=O)n2c1sc1ccc(OC3CCCCC3)cc12 [Compound 17]	µM	41.2
O=C(N[C@@H](Cc1ccc(O)cc1)C(=O)O)c1ccc(=O)n2c1sc1ccc(OC3CCCCC3)cc12 [Compound 18]	µM	85.5

* * *

Test: in vitro
Conditions: human

compound	CC50 at 48 h
O=C(N[C@@H](Cc1ccccc1)C(=O)O)c1cc(-c2ccccc2)c(=O)n2c1sc1ccc(OC3CCCCC3)cc12	> 50 µM
O=C(N[C@@H](Cc1ccc(O)cc1)C(=O)O)c1cc(-c2ccccc2)c(=O)n2c1sc1ccc(OC3CCCCC3)cc12 [Compound 16, reference compound]	> 50 µM
O=C(N[C@@H](Cc1ccc(O)cc1)C(=O)O)c1ccc(=O)n2c1sc1ccc(OC3CCCCC3)cc12	> 50 µM

Where do these numbers come from? They come from paper PMC8402726.
